Examples of molecules with documented T/C follow.
# System: L1210 leukemia ip in BDF1 mice, survival T/C
# Method description: NCI In Vivo Anticancer Drug Screen. Data for tumor model L1210 Leukemia (intraperitoneal) in B6D2F1 (BDF1) mice
# Details: endpoint: mean survival time; dose: 100.0 mg/kg/injection; schedule: Q01DX001 (ip); vehicle: other; higher = longer survival
Inconclusive results and toxic doses are left out.
Measurement kind: T/C

{"Compound structure": "O=C(Cc1c[nH]c2ccccc12)N=Nc1c(O)[nH]c2ccccc12", "Value measured": "102 % of control"}
{"Compound structure": "Nc1ncnc2c1ccn2Cc1ccccc1", "Value measured": "97 % of control"}
{"Compound structure": "CC(=O)Nc1c(Br)cc2c(c1Br)Cc1cc(N=Cc3ccc4c(c3)OCO4)ccc1-2", "Value measured": "100 % of control"}
{"Compound structure": "CCCCCCCCNP(=S)(NCCCCCCCC)NCCCCCCCC", "Value measured": "96 % of control"}
{"Compound structure": "CC(C)CN(C)N=Nc1ccc(C(N)=O)cc1", "Value measured": "100 % of control"}
{"Compound structure": "Oc1ccccc1C=Nc1ccccc1S.[Co]", "Value measured": "105 % of control"}
